For each entry below, report its OD450 value.
molecular target: Peptide 5: Biotin-…-[Tyr(PC)]-acid; assay: scFv ELISA
Sequence (peptide, as listed by the source): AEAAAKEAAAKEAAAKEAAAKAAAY
Numbers only here, please. The scale is OD450.

Req: Item under review: PcOxP_DB01_H01 (scFv, V domains shown, scFv in periplasmic extract) VH: EVQLLESGGGLVQPGGSLRLSCAASGFTFSSYYMEWVRQAPGKGLEWVAASRNKANLYTTEYADSVKGRFTISRDNSKNTLYLQMNSLRAEDTAVYYCARDYYGSSTWYFDVWGQGTLVTVSS VL: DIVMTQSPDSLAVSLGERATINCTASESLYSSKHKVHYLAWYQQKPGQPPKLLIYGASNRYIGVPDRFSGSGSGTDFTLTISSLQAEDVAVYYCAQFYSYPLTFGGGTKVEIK . Reported OD450?
Resp: 1.23

Req: Quick one: OD450 for PcOxP_DB01_F07 (scFv, V domains shown, scFv in periplasmic extract) VH: EVQLLESGGGLVQPGGSLRLSCAASGDTFSDFYLEWVRQAPGKGLEWVAASRNKANGYTTEYADSVKGRFTISRDNSKNTLYLQMNSLRAEDTAVYYCARDYYHSSYWYFDVWGQGTLVTVSS VL: DIVMTQSPDSLAVSLGERATINCTASESLYSSKHKVHYLAWYQQKPGQPPKLLIYGASNRYIGVPDRFSGSGSGTDFTLTISSLQAEDVAVYYCAHFYSYPLTFGGGTKVEIK ?
Resp: 0.81

Req: Given the entry PcOxP_DB01_E11 (scFv, V domains shown, scFv in periplasmic extract) VH: EVQLLESGGGLVQPGGSLRLSCAASGFTFSDFYMEWVRQAPGKGLEWVAASRNKANDYVTEYADSVKGRFTISRDNSKNTLYLQMNSLRAEDTAVYYCARDYYGSSYWYFDVWGQGTLVTVSS VL: DIQMTQSPSSLSASVGDRVTITCTASFSLYSSKHKVHYLAWYQQKPGKAPKLLIYGASNRYPGVPSRFSGSGSGTDFTLTISSLQPEDFATYYCAQFYYYPLTFGGGTKVEIK , report its measured OD450.
Resp: 0.73

Req: Endpoint output: OD450 of PcOxP_DB02_H08 (scFv, V domains shown, scFv in periplasmic extract) VH: EVQLLESGGGLVQPGGSLRLSCAASGFTFSDAYMEWVRQAPGKGLEWVAASRNKANDYTTEYADSVKGRFTISRDNSKNTLYLQMNSLRAEDTAVYYCARDYYGSHYWYFDVWGQGTLVTVSS VL: DIVMTQSPDSLAVSLGERATINCTSSQSLYSSKHNKHYLAWYQQKPGQPPKLLIYGASNRYIGVPDRFSGSGSGTDFTLTISSLQAEDVAVYYCAQFYSYPLTFGGGTKVEIK . Value?
Resp: 1.34

Req: What measured OD450 goes with PcOxP_DB01_F06 (scFv, V domains shown, scFv in periplasmic extract) VH: EVQLLESGGGLVQPGGSLRLSCAASGDTFSDFYMEWVRQAPGKGLEWVAASRNKANDYTTEYADSVKGRFTISRDNSKNTLYLQMNSLRAEDTAVYYCARDYYGSSYWYFDVWGQGTLVTVSS VL: DIVMTQSPDSLAVSLGERATINCKSSQSLYYSSNKKNYLAWYQQKPGQPPKLLIYGASNRYGGVPDRFSGSGSGTDFTLTISSLQAEDVAVYYCAQFYRYPLTFGGGTKVEIK ?
Resp: 0.53
